Data origin, for the record: patent US20260130395A1

- protocol.notes: Stability of cannabinoid compounds and Vitamin E components in Beverage 1 (AB White) by LCMSMS
- Format: physicochemical
- settings: AB White stored at 8° C.; 5 days
I'd appreciate it if you could supply Stability of Plant-Derived Cannabinoid Compounds in AB White, 8° C. values for the items below.
Enter your answer as a number in µg/mL; do not include the unit.

Value lookup for Stability of Plant-Derived Cannabinoid Compounds in AB White, 8° C.; key = CCCCCc1cc(O)c2c(c1)OC(C)(CCC=C(C)C)C=C2 (stereo not drawn) [CBC, cannabichromene]
0.322

Again, but for C=C(C)[C@@H]1CCC(C)=C[C@H]1c1c(O)cc(CCCCC)c(C(=O)O)c1O [CBDA, cannabidiolic acid]
1.71

Again, but for CCCCCc1cc2c(c(O)c1C(=O)O)[C@@H]1C=C(C)CC[C@H]1C(C)(C)O2 [D9 THCA, delta-9-tetrahydrocannabinolic acid]
0.956

====

- protocol.notes: Stability of cannabinoid compounds and Vitamin E components in Beverage 1 (AB White) by LCMSMS
- Assay type: physicochemical
- settings: AB White stored at 8° C.; 240 days
endpoint.label: Stability of Plant-Derived Cannabinoid Compounds in AB White, 8° C.
Number plus unit, in that order.

Value lookup for Stability of Plant-Derived Cannabinoid Compounds in AB White, 8° C.; key = C=C(C)[C@@H]1CCC(C)=C[C@H]1c1c(O)cc(CCCCC)c(C(=O)O)c1O
1.70 µg/mL

Again, but for C=C(C)[C@@H]1CCC(C)=C[C@H]1c1c(O)cc(CCCCC)cc1O [CBD, cannabidiol, reference compound]
27.79 µg/mL

Again, but for CCCCCc1cc(O)c2c(c1)OC1(C)CCC3C1C2C3(C)C (stereo not drawn)
0.535 µg/mL

====

I'd appreciate it if you could supply Stability of Plant-Derived Cannabinoid Compounds in AB Red values for the items below.
- protocol.notes: Stability of cannabinoid compounds and Vitamin E components in Beverage 2 (AB Red) by LCMSMS
- Type: physicochemical
- settings: stored at 8° C., 2 days
Number plus unit, in that order.

Value lookup for Stability of Plant-Derived Cannabinoid Compounds in AB Red; key = CCCc1cc(O)c2c(c1)OC(C)(C)[C@@H]1CCC(C)=C[C@@H]21 [THCV, delta-9-tetrahydrocannabivarin]
3.17 µg/mL

Again, but for CCCCCc1cc(O)c2c(c1)OC(C)(CCC=C(C)C)C=C2 (centres unmarked)
0.292 µg/mL

Again, but for CCCCCc1cc(O)c2c(c1)OC1(C)CCC3C1C2C3(C)C (centres unmarked)
0.508 µg/mL

Again, but for CCCCCc1cc2c(c(O)c1C(=O)O)[C@@H]1C=C(C)CC[C@H]1C(C)(C)O2 [D9 THCA, delta-9-tetrahydrocannabinolic acid]
1.34 µg/mL

Again, but for CCCCCc1cc(O)c2c(c1)OC(C)(C)[C@@H]1CCC(C)=C[C@@H]21 [D9 THC, delta-9-tetrahydrocannabinol, reference compound]
13.0 µg/mL

====

I'd appreciate it if you could supply Stability of Plant-Derived Cannabinoid Compounds in AB Red values for the items below.
- protocol.notes: Stability of cannabinoid compounds and Vitamin E components in Beverage 2 (AB Red) by LCMSMS
- Type: physicochemical
- settings: stored at 21-25° C., 10 days
Enter your answer as a number in µg/mL; do not include the unit.

Value lookup for Stability of Plant-Derived Cannabinoid Compounds in AB Red; key = CCCCCc1cc(O)c(C/C=C(\C)CCC=C(C)C)c(O)c1
4.59

Again, but for CCCc1cc(O)c2c(c1)OC(C)(C)[C@@H]1CCC(C)=C[C@@H]21 [THCV, delta-9-tetrahydrocannabivarin]
3.09

Again, but for CCCCCc1cc(O)c2c(c1)OC(C)(C)[C@@H]1CCC(C)=C[C@@H]21 [D9 THC, delta-9-tetrahydrocannabinol, reference compound]
12.5

Again, but for CCCCCc1cc(O)c2c(c1)OC(C)(C)c1ccc(C)cc1-2
2.73

Again, but for CCCCCc1cc(O)c2c(c1)OC1(C)CCC3C1C2C3(C)C (stereo not drawn)
0.50

Again, but for CCCCCc1cc(O)c2c(c1)OC(C)(CCC=C(C)C)C=C2 (stereo not drawn)
0.29

Again, but for CCCCCc1cc2c(c(O)c1C(=O)O)[C@@H]1C=C(C)CC[C@H]1C(C)(C)O2 [D9 THCA, delta-9-tetrahydrocannabinolic acid]
1.33

Again, but for C=C(C)[C@@H]1CCC(C)=C[C@H]1c1c(O)cc(CCC)cc1O
0.20

Again, but for C=C(C)[C@@H]1CCC(C)=C[C@H]1c1c(O)cc(CCCCC)c(C(=O)O)c1O
1.61

====

- protocol.notes: Stability of cannabinoid compounds and Vitamin E components in Beverage 1 (AB White) by LCMSMS
- Assay type: physicochemical
- settings: AB White stored at 21-25° C.; 26 days
Classification by Stability of Plant-Derived Cannabinoid Compounds in AB White, 21-25° C. follows these ranges: small value: < 0.5 µg/mL; mid value: ≥ 0.5 µg/mL and < 4 µg/mL; large value: ≥ 4 µg/mL

Hi, small favor: classify CCCCCc1cc(O)c2c(c1)OC1(C)CCC3C1C2C3(C)C (stereo not drawn) [CBL, cannabicyclol] by its Stability of Plant-Derived Cannabinoid Compounds in AB White, 21-25° C. when you get a moment.
mid value

Again, but for CCCCCc1cc(O)c2c(c1)OC(C)(C)c1ccc(C)cc1-2 [CBN, cannabinol]
mid value

Again, but for C=C(C)[C@@H]1CCC(C)=C[C@H]1c1c(O)cc(CCCCC)c(C(=O)O)c1O [CBDA, cannabidiolic acid]
mid value

Again, but for CCCc1cc(O)c2c(c1)OC(C)(C)[C@@H]1CCC(C)=C[C@@H]21 [THCV, delta-9-tetrahydrocannabivarin]
mid value

Again, but for C=C(C)[C@@H]1CCC(C)=C[C@H]1c1c(O)cc(CCC)cc1O [CBDV, cannabidivarin]
small value

Again, but for CCCCCc1cc(O)c2c(c1)OC(C)(C)[C@@H]1CCC(C)=C[C@@H]21 [D9 THC, delta-9-tetrahydrocannabinol, reference compound]
large value

Again, but for CCCCCc1cc(O)c(C/C=C(\C)CCC=C(C)C)c(O)c1 [CBG, cannabigerol]
large value

Again, but for CCCCCc1cc(O)c2c(c1)OC(C)(CCC=C(C)C)C=C2 (stereo not drawn) [CBC, cannabichromene]
small value

Again, but for CCCCCc1cc2c(c(O)c1C(=O)O)[C@@H]1C=C(C)CC[C@H]1C(C)(C)O2 [D9 THCA, delta-9-tetrahydrocannabinolic acid]
mid value

====

- protocol.notes: Stability of cannabinoid entourage and Vitamin E components of the powder concentrate by LCMSMS
- Type: physicochemical
- settings: powder stored at 21-25° C.; 330 days
I'd appreciate it if you could supply Stability of Plant-Derived Cannabinoid Compounds in Powder Concentrate values for the items below.
Enter your answer as a number in mg/g powder; do not include the unit.

Value lookup for Stability of Plant-Derived Cannabinoid Compounds in Powder Concentrate; key = CCCCCc1cc(O)c(C/C=C(\C)CCC=C(C)C)c(O)c1
1.10

Again, but for CCCCCc1cc(O)c2c(c1)OC(C)(C)c1ccc(C)cc1-2
0.502

Again, but for CCCCCc1cc2c(c(O)c1C(=O)O)[C@@H]1C=C(C)CC[C@H]1C(C)(C)O2 [D9 THCA, delta-9-tetrahydrocannabinolic acid]
0.156

Again, but for CCCCCc1cc(O)c2c(c1)OC(C)(CCC=C(C)C)C=C2 (stereo not shown)
0.069

====

- protocol.notes: Stability of cannabinoid compounds and Vitamin E components in Beverage 2 (AB Red) by LCMSMS
- Assay type: physicochemical
- settings: stored at 21-25° C., 270 days
// returns Not fulfilled unless Stability of Plant-Derived Cannabinoid Compounds in AB Red is strictly below 1 µg/mL, in which case Fulfilled

Is 1 µg/mL strictly greater than the compound's reported Stability of Plant-Derived Cannabinoid Compounds in AB Red? compound: CCCCCc1cc(O)c2c(c1)OC1(C)CCC3C1C2C3(C)C (stereo not drawn) [CBL, cannabicyclol]
Fulfilled

Again, but for CCCCCc1cc(O)c(C/C=C(\C)CCC=C(C)C)c(O)c1 [CBG, cannabigerol]
Not fulfilled

Again, but for CCCCCc1cc(O)c2c(c1)OC(C)(C)[C@@H]1CCC(C)=C[C@@H]21 [D9 THC, delta-9-tetrahydrocannabinol, reference compound]
Not fulfilled

Again, but for CCCCCc1cc2c(c(O)c1C(=O)O)[C@@H]1C=C(C)CC[C@H]1C(C)(C)O2 [D9 THCA, delta-9-tetrahydrocannabinolic acid]
Not fulfilled

Again, but for CCCCCc1cc(O)c2c(c1)OC(C)(CCC=C(C)C)C=C2 (stereo not drawn) [CBC, cannabichromene]
Fulfilled

Again, but for C=C(C)[C@@H]1CCC(C)=C[C@H]1c1c(O)cc(CCC)cc1O [CBDV, cannabidivarin]
Fulfilled

Again, but for CCCc1cc(O)c2c(c1)OC(C)(C)[C@@H]1CCC(C)=C[C@@H]21 [THCV, delta-9-tetrahydrocannabivarin]
Not fulfilled

Again, but for CCCCCc1cc(O)c2c(c1)OC(C)(C)c1ccc(C)cc1-2 [CBN, cannabinol]
Not fulfilled

Again, but for C=C(C)[C@@H]1CCC(C)=C[C@H]1c1c(O)cc(CCCCC)c(C(=O)O)c1O [CBDA, cannabidiolic acid]
Not fulfilled
